system: KB; test: In vitro cytotoxicity against KB cancer cell lines.; format: functional; settings: Homo sapiens, read-out: TD50 (the source's name)
Please provide measured CC50 for the entries that follow.
Give the number; µg/mL is assumed, so skip it.

Request: Hello, please tell me recorded CC50 for this one: CCOC(=O)c1cc(NC(=O)c2cc(NC(=O)c3cc(NC4=CC5=NCCc6cn(C)c(c65)C4=O)cn3COC)cn2COC)cn1COC
Result: 1.4

Request: Report measured CC50; entry is CCOC(=O)c1cc(NC(=O)c2cc(NC3=CC4=NCCc5cn(C)c(c54)C3=O)cn2COC)cn1COC
Result: 2.3

Request: Identify measured CC50 corresponding to CCOC(=O)c1cc(NC2=CC3=NCCc4cn(C)c(c43)C2=O)cn1COC
Result: 0.5

Request: Input COc1cccc2c1C(=O)c1c(O)c3c(c(O)c1C2=O)C[C@@](O)(C(=O)CO)C[C@@H]3O[C@H]1C[C@H](N)[C@H](O)[C@H](C)O1 , output reported CC50.
Result: 0.02

Request: Identify measured CC50 associated with COCn1cc(NC(=O)c2cc(NC3=CC4=NCCc5cn(C)c(c54)C3=O)cn2COC)cc1C(=O)NCCCN(C)C
Result: 1.9

Request: Supply CC50 value. Item: COCn1cc(NC2=CC3=NCCc4cn(C)c(c43)C2=O)cc1C(=O)NCCCN(C)C
Result: 0.5

Request: For the molecule COCn1cc(NC(=O)c2cc(NC(=O)c3cc(NC4=CC5=NCCc6cn(C)c(c65)C4=O)cn3COC)cn2COC)cc1C(=O)NCCCN(C)C , give its reported CC50.
Result: 0.4
